Each entry below carries its recorded activation.
experiment: PERK-eIF2a-CHOP pathway stimulators – cell-based, CHO-CHOP luciferase reporter, luminescence, uHTS, primary screen (AID 449763); settings: UPR activation, at 10 µM, hits give high values, percent of tunicamycin response over DMSO baseline;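 further: 100% = tunicamycin at 10 µg/mL and 0% = DMSO alone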
Out of some 330,000 compounds screened, about 1,100 (0.33%) were called active. Many of the other results were omitted from the sample, so actives are more common in it than they were.

>  <COMPOUND>
CC(C)(C)Nc1nc(-c2ccccn2)nc2ccccc12

>  <activation [%]>
61.4

$$$$
>  <COMPOUND>
CN(CC(=O)NC1CCN(Cc2ccccc2)CC1)S(=O)(=O)c1ccc(Cl)s1

>  <activation [%]>
-1.76

$$$$
>  <COMPOUND>
CC1(C)CCSC(/C=C/c2ccccc2)=N1

>  <activation [%]>
57.7

$$$$
>  <COMPOUND>
CCOc1ccc(NC(=O)c2nc(SCC)ncc2Cl)cc1

>  <activation [%]>
0.746

$$$$
>  <COMPOUND>
Cc1ccc(CS(=O)(=O)c2ncc(Cl)c(C(=O)Nc3nnc(C)s3)n2)cc1

>  <activation [%]>
26.4

$$$$
>  <COMPOUND>
COc1ccc(-n2cc(CNC3CCOCC3)c(-c3cccc(F)c3)n2)cc1

>  <activation [%]>
0.961

$$$$
>  <COMPOUND>
Cc1cccc(NC(=O)c2nc(S(=O)(=O)Cc3ccccc3)ncc2Cl)c1

>  <activation [%]>
-9.27

$$$$
>  <COMPOUND>
COc1cc(N=Cc2c(O)c3ccccc3oc2=O)c(OC)cc1Cl

>  <activation [%]>
3.5

$$$$
>  <COMPOUND>
CC(C)=CCC/C(C)=C/C(=O)O

>  <activation [%]>
0.467

$$$$
>  <COMPOUND>
CCOc1ccc2nc(Cl)c(C3CC(c4ccccc4)=NN3C(=O)c3cccs3)cc2c1 (stereo not drawn)

>  <activation [%]>
85.3

$$$$
>  <COMPOUND>
N#Cc1ccc(Oc2cc(C(F)(F)F)nc(-c3ccccn3)n2)cc1

>  <activation [%]>
-0.253

$$$$
>  <COMPOUND>
COc1ccccc1N=Cc1c(O)c2ccccc2oc1=O

>  <activation [%]>
130

$$$$
>  <COMPOUND>
COc1cnc(-c2ccccn2)nc1Oc1ccc(C(C)(C)C)cc1

>  <activation [%]>
3.2

$$$$
>  <COMPOUND>
Cn1cccc1/C=N/NC(=O)c1ccc(OC(F)(F)C(F)F)cc1

>  <activation [%]>
2.77

$$$$
>  <COMPOUND>
Cc1ccc(Oc2nc(-c3ccccn3)nc3ccccc23)cc1

>  <activation [%]>
48.5

$$$$
>  <COMPOUND>
COc1cccc(/C=N/NC(=O)CNC(=O)c2ccc(S(=O)(=O)N3CCOCC3)cc2)c1OC

>  <activation [%]>
3.45

$$$$
>  <COMPOUND>
COc1ccc(C2=NN(C(=O)c3ccccc3C(=O)O)C(c3ccccc3O)C2)cc1 (stereo not drawn)

>  <activation [%]>
4.22

$$$$
>  <COMPOUND>
CCOc1ccccc1C1CC(c2cccc(NS(C)(=O)=O)c2)=NN1C(=O)c1ccccc1 (stereo not drawn)

>  <activation [%]>
1.22

$$$$
>  <COMPOUND>
CC(=O)Nc1ccc(S(=O)(=O)Nc2ccc(N3CCCCC3)cc2)cc1

>  <activation [%]>
4.38

$$$$
>  <COMPOUND>
CSc1nnc(NC(=O)c2nc(S(=O)(=O)Cc3ccc(C)cc3)ncc2Cl)s1

>  <activation [%]>
72.6

$$$$
>  <COMPOUND>
CC1=C(C(N)=O)C(c2ccc(Br)cc2)n2ncnc2N1 (stereo not drawn)

>  <activation [%]>
-1.48

$$$$
>  <COMPOUND>
C[C@H](C(=O)CC(=O)OC(C)(C)C)[C@H](O)c1ccc(C(F)(F)F)cc1

>  <activation [%]>
1.59

$$$$
>  <COMPOUND>
Cn1nccc1NC(=O)Nc1ccc(OC(F)(F)F)cc1

>  <activation [%]>
0.489

$$$$

Data credit: PubChem BioAssay AID449763
